# pEC50 listing for each entry below
Target: human activated kallikrein enzyme (Homo sapiens)
Sequence (P03952 391-638 limits assumed): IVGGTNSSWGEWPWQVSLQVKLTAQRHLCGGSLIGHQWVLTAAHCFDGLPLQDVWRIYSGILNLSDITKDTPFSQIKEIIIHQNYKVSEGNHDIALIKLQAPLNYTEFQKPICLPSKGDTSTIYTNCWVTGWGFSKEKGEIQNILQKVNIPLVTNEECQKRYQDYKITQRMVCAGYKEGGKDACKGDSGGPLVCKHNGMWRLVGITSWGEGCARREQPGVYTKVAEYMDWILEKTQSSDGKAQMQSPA
Sequence (P03952 20-390 partner limits assumed): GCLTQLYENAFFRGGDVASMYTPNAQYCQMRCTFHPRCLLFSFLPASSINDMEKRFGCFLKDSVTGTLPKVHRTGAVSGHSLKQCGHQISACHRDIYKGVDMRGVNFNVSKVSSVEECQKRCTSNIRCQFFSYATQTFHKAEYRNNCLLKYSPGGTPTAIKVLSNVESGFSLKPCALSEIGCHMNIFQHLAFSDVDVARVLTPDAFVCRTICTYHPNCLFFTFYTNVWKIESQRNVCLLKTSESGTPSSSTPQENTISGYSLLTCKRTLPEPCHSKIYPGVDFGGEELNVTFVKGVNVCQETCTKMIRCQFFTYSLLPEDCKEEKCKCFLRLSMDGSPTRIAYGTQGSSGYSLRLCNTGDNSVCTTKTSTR
Experiment: Plasma kallikrein inhibition, fluorogenic PFR-AMC substrate, 500 pM activated kallikrein format
Format: biochemical
Conditions: 500 pM activated kallikrein, 300 uM PFR-AMC, 30 min preincubation, 10 min reaction; read-out: Primary Dose Response Assay: Average EC50
pEC50: −log10 of the molar value.

> print(dat)
                                   compound        result
1  O=C(Nc1cc(NCc2cn3cc(C4CC4)ccc3n2)c(F)cn1)[C@H]1C[C@@H]1c1cccc(Cl)c1 (racemic) [Example 86]  6.00 to 7.00
2  CN1CC(F)(c2cc(C3CC3)cn3cc(CNc4ccnc(NC(=O)[C@H]5C[C@@H]5c5cccc(Cl)c5)c4)nc23)C1 [Example I-227]        > 9.00
3  Cc1ccnc([C@H]2C[C@@H]2C(=O)Nc2ncnc(NCc3cn4cc(C5CC5)cc(N5CC(=O)N(C)C5=O)c4n3)c2F)n1 (racemic) [Example 412]  8.00 to 9.00
4  Cc1ccnc([C@H]2C[C@@H]2C(=O)Nc2cc(NCc3cn4cc(C5CC5)ccc4n3)ccn2)n1 (racemic) [Example 414]        > 9.00
5  CC(=O)c1cc(C2CC2)cn2cc(CNc3ccnc(NC(=O)[C@H]4C[C@@H]4c4cccc(Cl)c4)c3)nc12 [Example I-237]        > 9.00

Now turn to the next compound.
Prompt: Request body: readout pEC50, system human activated kallikrein enzyme (Homo sapiens), query O=C(Nc1cc(NCc2cn3cc(C4CC4)ccc3n2)ncn1)[C@@H]1[C@@H](c2cccc(Cl)c2)C1(F)F (racemic) [Example 503] . Return the value.
Response: 8.00 to 9.00

The reported numbers originate from patent US20240228488A1.
